assay-system: chimeric Caspase-9 polypeptide
Sequence (P62942 2-108 F37V limits assumed): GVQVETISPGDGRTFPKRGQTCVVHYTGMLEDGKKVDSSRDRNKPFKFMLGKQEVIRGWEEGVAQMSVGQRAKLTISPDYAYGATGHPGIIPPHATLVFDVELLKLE
test-name: Caspase-9 mutant classes and basal activity (Table 5)
Assay type: cell-based
conditions-used: Caspase-9 mutant class; ligand IC50 compared with unmodified chimeric Caspase-9
measurement-label: IC50

Reference set (5 entries):
molecule="L329E (protein) GFGDVGALESLRGNADLAYILSMEPCGHCLIINNVNFCRESGLRTRTGSNIDCEKLRRRFSSLHFMVEVKGDLTAKKMVLALLELARQDHGALDCCVVVILSHGCQASHLQFPGAVYGTDGCPVSVEKIVNIFNGTSCPSLGGKPKLFFIQACGGEQKDHGFEVASTSPEDESPGSNPEPDATPFQEGLRTFDQEDAISSLPTPSDIFVSYSTFPGFVSWRDPKSGSWYVETLDDIFEQWAHSEDLQSLLLRVANAVSVKGIYKQMPGCFNFLRKKLFFKTSASRA" measurement_label=IC50 reported_value="higher IC50"
molecule="D330A-S196A (protein) GFGDVGALESLRGNADLAYILSMEPCGHCLIINNVNFCRESGLRTRTGSNIDCEKLRRRFSALHFMVEVKGDLTAKKMVLALLELARQDHGALDCCVVVILSHGCQASHLQFPGAVYGTDGCPVSVEKIVNIFNGTSCPSLGGKPKLFFIQACGGEQKDHGFEVASTSPEDESPGSNPEPDATPFQEGLRTFDQLAAISSLPTPSDIFVSYSTFPGFVSWRDPKSGSWYVETLDDIFEQWAHSEDLQSLLLRVANAVSVKGIYKQMPGCFNFLRKKLFFKTSASRA" measurement_label=IC50 reported_value="higher IC50"
molecule="Y153A (protein) GFGDVGALESLRGNADLAAILSMEPCGHCLIINNVNFCRESGLRTRTGSNIDCEKLRRRFSSLHFMVEVKGDLTAKKMVLALLELARQDHGALDCCVVVILSHGCQASHLQFPGAVYGTDGCPVSVEKIVNIFNGTSCPSLGGKPKLFFIQACGGEQKDHGFEVASTSPEDESPGSNPEPDATPFQEGLRTFDQLDAISSLPTPSDIFVSYSTFPGFVSWRDPKSGSWYVETLDDIFEQWAHSEDLQSLLLRVANAVSVKGIYKQMPGCFNFLRKKLFFKTSASRA" measurement_label=IC50 reported_value="much higher"
molecule="S195A (protein) GFGDVGALESLRGNADLAYILSMEPCGHCLIINNVNFCRESGLRTRTGSNIDCEKLRRRFASLHFMVEVKGDLTAKKMVLALLELARQDHGALDCCVVVILSHGCQASHLQFPGAVYGTDGCPVSVEKIVNIFNGTSCPSLGGKPKLFFIQACGGEQKDHGFEVASTSPEDESPGSNPEPDATPFQEGLRTFDQLDAISSLPTPSDIFVSYSTFPGFVSWRDPKSGSWYVETLDDIFEQWAHSEDLQSLLLRVANAVSVKGIYKQMPGCFNFLRKKLFFKTSASRA" measurement_label=IC50 reported_value="higher IC50"
molecule="N405F (protein) GFGDVGALESLRGNADLAYILSMEPCGHCLIINNVNFCRESGLRTRTGSNIDCEKLRRRFSSLHFMVEVKGDLTAKKMVLALLELARQDHGALDCCVVVILSHGCQASHLQFPGAVYGTDGCPVSVEKIVNIFNGTSCPSLGGKPKLFFIQACGGEQKDHGFEVASTSPEDESPGSNPEPDATPFQEGLRTFDQLDAISSLPTPSDIFVSYSTFPGFVSWRDPKSGSWYVETLDDIFEQWAHSEDLQSLLLRVANAVSVKGIYKQMPGCFFFLRKKLFFKTSASRA" measurement_label=IC50 reported_value="much higher"

Quick one: IC50 for F406W (protein) GFGDVGALESLRGNADLAYILSMEPCGHCLIINNVNFCRESGLRTRTGSNIDCEKLRRRFSSLHFMVEVKGDLTAKKMVLALLELARQDHGALDCCVVVILSHGCQASHLQFPGAVYGTDGCPVSVEKIVNIFNGTSCPSLGGKPKLFFIQACGGEQKDHGFEVASTSPEDESPGSNPEPDATPFQEGLRTFDQLDAISSLPTPSDIFVSYSTFPGFVSWRDPKSGSWYVETLDDIFEQWAHSEDLQSLLLRVANAVSVKGIYKQMPGCFNWLRKKLFFKTSASRA ?
higher IC50

Quick one: IC50 for D330A (protein) GFGDVGALESLRGNADLAYILSMEPCGHCLIINNVNFCRESGLRTRTGSNIDCEKLRRRFSSLHFMVEVKGDLTAKKMVLALLELARQDHGALDCCVVVILSHGCQASHLQFPGAVYGTDGCPVSVEKIVNIFNGTSCPSLGGKPKLFFIQACGGEQKDHGFEVASTSPEDESPGSNPEPDATPFQEGLRTFDQLAAISSLPTPSDIFVSYSTFPGFVSWRDPKSGSWYVETLDDIFEQWAHSEDLQSLLLRVANAVSVKGIYKQMPGCFNFLRKKLFFKTSASRA ?
higher IC50
